These entries and their values trace back to ChEMBL document CHEMBL3433997.

Target Under Test: Solute carrier family 2, facilitated glucose transporter member 1 (Homo sapiens) (UniProt P11166)
Sequence (P11166 whole entry): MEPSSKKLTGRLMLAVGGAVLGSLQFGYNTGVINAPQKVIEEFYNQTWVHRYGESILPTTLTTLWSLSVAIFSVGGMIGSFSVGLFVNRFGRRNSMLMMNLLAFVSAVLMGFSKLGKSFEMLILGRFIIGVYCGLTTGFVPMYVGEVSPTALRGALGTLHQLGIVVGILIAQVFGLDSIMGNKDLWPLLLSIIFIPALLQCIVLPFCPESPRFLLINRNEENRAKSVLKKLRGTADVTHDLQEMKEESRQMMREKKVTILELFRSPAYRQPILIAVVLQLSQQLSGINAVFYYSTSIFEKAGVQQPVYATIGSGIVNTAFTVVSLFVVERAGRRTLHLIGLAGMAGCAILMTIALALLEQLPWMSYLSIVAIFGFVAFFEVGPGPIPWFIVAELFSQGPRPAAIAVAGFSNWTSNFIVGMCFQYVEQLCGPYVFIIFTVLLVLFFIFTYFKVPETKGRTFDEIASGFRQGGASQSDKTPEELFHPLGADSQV
Method: ST_JUDE_LEISH: Cytotoxicity at 2uM final concentration against transgenic Leishmania Mexicana promastigotes LmGLUT1 that are glucose transport deficient and complemented with the human glucose transporter GLUT1. Activity is measured by DNA content using SYBR green in vitro
Type: functional
Here the recorded inhibition is given for each entry.

Compound | inhibition
COc1ccc(C(=O)Nc2cc(Br)c3c(c2)CNCC3)cc1Br | 2.73%
CCOc1c(OC)ccc2c1CCN(CCN1CCC(NC(=O)c3ccc(-c4cccc(C(F)(F)F)c4C(F)(F)F)cc3)CC1)C2 | 1.91%
CCCCOP(=O)(OCCCC)C(=Cc1ccc(O)c2ccccc12)P(=O)(OCCCC)OCCCC | 5.02%
COc1cc(C)c(C(O)CNC(C)CCc2ccccc2)cc1C (centres undefined) | 2.16%
CCN(c1ccccc1)S(=O)(=O)c1ccc(OC)c(NC(=O)c2cccc(C(F)(F)F)c2)c1 | 10.4%
CC(C)(C)c1ccc(NC(=O)c2ccc(CN3CCCN(Cc4cccc(F)c4)CC3)cc2)cc1 | 13.7%
COc1cc2c(c(Cl)c1OC)CCN(Cc1ccccc1)CC2c1ccc(NC(=O)C(F)(F)F)cc1 (centres undefined) | 3.91%
O=c1cc(NCCCCNCc2ccc(Br)c(Br)c2)[nH]c2ccccc12 | 0.91%
O=C(Nc1ccc(Cl)cc1)Nc1ccc(-c2cccc(-c3nc4ccccc4[nH]3)c2)cc1 | 1.48%
